biological target: human PRS protein (Homo sapiens); construct: to construct His-Avi-hEPRS (998-1512) expression plasmid; His tag (N); Avi tag (N); TEV cleavage site (ENLYFQ/GS, encoded by forward primer hEPRS-TEV-NheF) (N); made in house; host or cells: E. coli BL21(DE3); assay: PRS inhibitory activity (ATP/[32P]pyrophosphate exchange enzyme reaction); format: biochemical; details: 300 nM test compound; recombinant human PRS (EPRS 998-1512); read-out: inhibitory rate (%) of PRS
Sequence (P07814 998-1512): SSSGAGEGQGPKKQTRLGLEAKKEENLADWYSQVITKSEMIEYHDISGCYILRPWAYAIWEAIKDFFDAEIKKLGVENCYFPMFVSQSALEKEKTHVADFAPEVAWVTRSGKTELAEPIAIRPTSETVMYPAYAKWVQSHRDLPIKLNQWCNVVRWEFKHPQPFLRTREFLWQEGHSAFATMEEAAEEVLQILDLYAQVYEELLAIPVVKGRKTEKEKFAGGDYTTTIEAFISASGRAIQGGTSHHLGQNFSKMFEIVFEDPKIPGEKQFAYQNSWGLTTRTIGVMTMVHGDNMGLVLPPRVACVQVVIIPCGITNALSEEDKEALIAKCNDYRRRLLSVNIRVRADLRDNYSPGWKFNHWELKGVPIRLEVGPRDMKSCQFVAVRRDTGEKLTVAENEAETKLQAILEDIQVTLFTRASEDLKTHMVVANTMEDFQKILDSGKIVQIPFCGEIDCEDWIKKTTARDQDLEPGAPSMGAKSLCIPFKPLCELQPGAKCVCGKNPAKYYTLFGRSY

| Molecule | Measured On | inhibition at 0.3 µM, % |
| --- | --- | --- |
| N#C[C@@]1(C2CC2)CCN(c2ccnc(NC(=O)Cc3ccccc3Cl)c2)C1=O [Example 5] | human PRS protein (Homo sapiens) | 62 |
| N#C[C@@]1(C2CC2)CCN(c2ccnc(NC(=O)Cc3cccc(Cl)c3)n2)C1=O [Example 129] | human PRS protein (Homo sapiens) | 87 |
| C=CC[C@]1(C#N)CCN(c2ccnc(NC(=O)Cc3cccc(-c4ccsc4)c3)c2)C1=O [Example 24] | human PRS protein (Homo sapiens) | 71 |
| Cc1cc(N2CC[C@@](C#N)(C3CC3)C2=O)cc(NC(=O)Cc2cc(F)cc(-c3cn(C)nn3)c2)n1 [Example 57] | human PRS protein (Homo sapiens) | 99 |
| Cc1cccc(CC(=O)Nc2cc(N3CC[C@@](C#N)(C4CC4)C3=O)ccn2)c1 [Example 11] | human PRS protein (Homo sapiens) | 85 |
| Cn1cc(-c2cccc(CC(=O)Nc3cc(N4CC[C@@](C#N)(C5CC5)C4=O)cc(C(F)(F)F)n3)c2)cn1 [Example 61] | human PRS protein (Homo sapiens) | 84 |
| N#C[C@@]1(C2CC2)CCN(c2ccnc(NC(=O)Cc3cccc4ccccc34)c2)C1=O [Example 3] | human PRS protein (Homo sapiens) | 93 |
| Cc1cc(N2CC[C@@](C#N)(C3CC3)C2=O)cc(NC(=O)Cc2cc(-c3cnn(C)c3)cc(C(F)(F)F)c2)n1 [Example 59] | human PRS protein (Homo sapiens) | 93 |
| Cc1cc(N2CC[C@@](C#N)(C3CC3)C2=O)cc(NC(=O)Cc2cccc(-c3cnn(C)c3C)c2)n1 [Example 98] | human PRS protein (Homo sapiens) | 98 |
| CC1(Cn2cc(-c3cccc(CC(=O)Nc4cc(N5CC[C@@](C#N)(C6CC6)C5=O)ccn4)c3)cn2)COC1 [Example 77] | human PRS protein (Homo sapiens) | 98 |
| Cn1ccc(-c2cccc(CC(=O)Nc3cc(N4CC[C@@](C#N)(C5CC5)C4=O)ccn3)c2)cc1=O [Example 51] | human PRS protein (Homo sapiens) | 99 |
| N#C[C@@]1(C2CC2)CCN(c2ccnc(NC(=O)Cc3cccc(-c4cnn(CC(F)(F)C(F)(F)F)c4)c3)c2)C1=O [Example 96] | human PRS protein (Homo sapiens) | 96 |
| N#C[C@@]1(C2CC2)CCN(c2ccnc(NC(=O)Cc3cccc(-c4cnn(CC5CC5(F)F)c4)c3)c2)C1=O (stereo partly drawn) [Example 78] | human PRS protein (Homo sapiens) | 100 |
| Cc1cc(N2CC[C@@](C#N)(C3CC3)C2=O)cc(NC(=O)Cc2cc(F)cc(-c3cnn(C)c3)c2)n1 [Example 52] | human PRS protein (Homo sapiens) | 99 |
| N#C[C@@]1(C2CC2)CCN(c2ccnc(NC(=O)Cc3cccs3)c2)C1=O [Example 16] | human PRS protein (Homo sapiens) | 88 |
